Tested on: BV2 (mouse microglia) cell line
measurement-description: pHrodo-myelin phagocytosis/cell viability high content imaging assay: viability (cell count, nuclear area, nuclear intensity)
cond: BV2 cells, 10 uM compound, 48 hours treatment
Listed here are compounds together with their documented 2. Nuclear Area (% Control).
property-label: 2. Nuclear Area (% Control)

> print(dat)
                                   compound               property.label  measurement.unit  measurement
1  O=C(N/N=C/c1ccc(Cl)cc1)c1ccccc1 [UNC10302877A]  2. Nuclear Area (% Control)         % Control        103.0
2  Cc1ccccc1NC(=O)CN1C(=O)N/C(=C/c2ccccc2OCc2ccc(C(=O)O)cc2)C1=O [UNC10302882A]  2. Nuclear Area (% Control)         % Control        109.5
3  Cc1cc(C)nc(NC(=S)N2CCN(Cc3ccc(C(F)(F)F)cc3)CC2)c1 [UNC10302844A]  2. Nuclear Area (% Control)         % Control        107.6
4  COc1cc(C(=O)NS(=O)(=O)c2ccccc2C)ccc1Cc1cn(C)c2ccc(NC(=O)OC3CCCC3)cc12 [UNC10121228A]  2. Nuclear Area (% Control)         % Control        103.2
5  c1ccc(CNc2nc(NCc3ccccc3)c3ccccc3n2)cc1 [UNC10302879A]  2. Nuclear Area (% Control)         % Control         94.3
6  CC(C)(O)c1coc(S(=O)(=O)[N-]C(=O)Nc2c3c(cc4c2CCC4)CCC3)c1.[Na+] [UNC10302861A]  2. Nuclear Area (% Control)         % Control        101.8
7  O=C(Nc1ccc2[nH]nc(-c3ccncc3)c2c1)[C@@H]1CCN(CC(=O)N2CCN(c3ccc(-c4ncccn4)cc3)CC2)C1 [UNC10302854A]  2. Nuclear Area (% Control)         % Control        114.7
8  Cl.O=C(NCCCNc1nc(Nc2cccc(CN3CCOCC3)c2)ncc1C1CC1)C1CCC1 [UNC10302867A, reference compound]  2. Nuclear Area (% Control)         % Control        154.0
